// data source = ChEMBL document CHEMBL4270590

Overview of reported Emax across a group of compounds:
target: Orexin/Hypocretin receptor type 1 (Homo sapiens) (UniProt O43613); assay: Agonist activity at human OX1 receptor expressed in CHOK1 cells assessed as increase in calcium accumulation at 10 uM incubated for 30 mins measured for 150 secs by calcium-4 dye based FLIPR assay relative to orexin-A; type: functional, cell-based
Sequence (O43613 whole entry): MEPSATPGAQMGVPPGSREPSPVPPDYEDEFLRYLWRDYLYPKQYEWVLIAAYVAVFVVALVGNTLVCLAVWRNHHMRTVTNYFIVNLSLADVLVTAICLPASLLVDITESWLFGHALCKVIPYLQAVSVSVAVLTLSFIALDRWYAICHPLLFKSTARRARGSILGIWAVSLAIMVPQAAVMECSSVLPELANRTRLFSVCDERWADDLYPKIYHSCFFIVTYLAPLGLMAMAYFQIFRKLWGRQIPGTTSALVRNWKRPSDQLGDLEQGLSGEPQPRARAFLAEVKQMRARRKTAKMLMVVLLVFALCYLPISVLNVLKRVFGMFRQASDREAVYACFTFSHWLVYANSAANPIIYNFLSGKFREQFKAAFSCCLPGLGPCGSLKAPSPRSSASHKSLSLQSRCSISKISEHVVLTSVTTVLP
Write it as a number; the unit % goes unstated.

Please report the recorded Emax for `CC(C)(C)OC(=O)NCC(=O)Oc1ccc2ccc(Cl)ccc1-2` . 1.62

Please answer likewise for `COC(=O)c1cc(CN2CCOCC2)c2ccc(Cl)ccc1-2` 0.42

Please answer likewise for `O=C(Oc1ccc2ccc(Cl)ccc1-2)c1ccccc1` 0.08

---

Overview of reported inhibition across a group of compounds:
target: Orexin receptor type 2 (Homo sapiens); test: Displacement of [125I]-orexin-A from human OX2 receptor expressed in CHOK1 cells at 10 uM incubated for 10 mins and measured after 90 mins by liquid scintillation counting method relative to control; format: cell-based
Write it as a number; the unit % goes unstated.

Please review the entries below; each comes with its answer.
O=C(Oc1ccc2ccc(Cl)ccc1-2)c1ccccc1 :: 34.3
O=C(Oc1ccc2ccc(Cl)ccc1-2)c1cccs1 :: 33.2
O=C(O)Cc1ccc2ccc(C(=O)c3ccc(C(F)(F)F)cc3)c-2cc1 :: 11.2
COC(=O)Cc1ccc2ccc(C(=O)c3ccc(C(F)(F)F)cc3)c-2cc1 :: 1

Please report the recorded inhibition for `O=C(OCc1ccccc1)Oc1ccc2ccc(Cl)ccc1-2` . 35.6

Please answer likewise for `CC(C)(C)OC(=O)NCC(=O)Oc1ccc2ccc(Cl)ccc1-2` 36

---

Biological target: Orexin receptor type 2 (Homo sapiens)
Sequence (whole entry): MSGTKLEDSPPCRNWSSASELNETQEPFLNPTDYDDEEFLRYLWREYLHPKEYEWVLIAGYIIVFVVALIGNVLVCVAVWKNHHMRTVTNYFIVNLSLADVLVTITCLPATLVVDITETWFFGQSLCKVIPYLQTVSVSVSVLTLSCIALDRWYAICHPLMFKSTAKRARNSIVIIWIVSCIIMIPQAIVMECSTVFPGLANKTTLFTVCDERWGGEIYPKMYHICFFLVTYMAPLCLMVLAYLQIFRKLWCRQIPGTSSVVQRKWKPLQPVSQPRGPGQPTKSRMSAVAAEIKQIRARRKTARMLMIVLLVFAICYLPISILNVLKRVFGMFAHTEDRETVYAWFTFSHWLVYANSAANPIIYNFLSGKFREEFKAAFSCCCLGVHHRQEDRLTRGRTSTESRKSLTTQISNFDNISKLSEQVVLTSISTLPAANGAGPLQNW
Test: Agonist activity at human OX2 receptor expressed in CHOK1 cells assessed as increase in calcium accumulation at 10 uM incubated for 30 mins measured for 150 secs by calcium-4 dye based FLIPR assay relative to orexin-A
Assay type: functional, cell-based
Emax of 10% or higher: rule met. Under 10%: rule not met.

Examples from the recorded data:
COC(=O)c1cc(CN2CCOCC2)c2ccc(Cl)ccc1-2 :: rule not met
COC(=O)c1ccc2ccc(C(=O)c3ccc(C(F)(F)F)cc3)c-2cc1 :: rule met
COC(=O)c1ccc2c(I)cc(C(=O)c3ccccc3)c-2cc1 :: rule not met
COC(=O)Cc1ccc2ccc(C(=O)c3ccccc3)c-2cc1 :: rule met

Confirm if Emax reported for the molecule `O=C(OCc1ccccc1)Oc1ccc2ccc(Cl)ccc1-2` is 10% or above. rule not met
